measurement.protocol: Pharmacokinetic study of compound 12 formulation in mice
Type: in vivo
experimental.parameters: IV Dose 20 mg/kg, Plasma, hydrochloride salt in 30% CAPTISOL
assay.endpoint: Cmax (µM)
// note: answer is a bare numeric in µM

query: Indicate the recorded Cmax value for this compound: "C#Cc1cccc(Nc2ncnc3cc(OC)c(OCCCCCCC(=O)NO)cc23)c1"
result: 27.7

---

measurement.protocol: Pharmacokinetic study of compound 12 formulation in mice
Format: in vivo
experimental.parameters: IP Dose 20 mg/kg, Lung, hydrochloride salt in 30% CAPTISOL
assay.endpoint: Cmax (µM)
// note: answer is a bare numeric in µM

query: Indicate the recorded Cmax value for this compound: C#Cc1cccc(Nc2ncnc3cc(OC)c(OCCCCCCC(=O)NO)cc23)c1 [Compound 12]
result: 7.8

---

experimental.system: HER2 (Homo sapiens)
Construct: human HER2 amino acids 679-1255
Sequence (P04626 679-1255): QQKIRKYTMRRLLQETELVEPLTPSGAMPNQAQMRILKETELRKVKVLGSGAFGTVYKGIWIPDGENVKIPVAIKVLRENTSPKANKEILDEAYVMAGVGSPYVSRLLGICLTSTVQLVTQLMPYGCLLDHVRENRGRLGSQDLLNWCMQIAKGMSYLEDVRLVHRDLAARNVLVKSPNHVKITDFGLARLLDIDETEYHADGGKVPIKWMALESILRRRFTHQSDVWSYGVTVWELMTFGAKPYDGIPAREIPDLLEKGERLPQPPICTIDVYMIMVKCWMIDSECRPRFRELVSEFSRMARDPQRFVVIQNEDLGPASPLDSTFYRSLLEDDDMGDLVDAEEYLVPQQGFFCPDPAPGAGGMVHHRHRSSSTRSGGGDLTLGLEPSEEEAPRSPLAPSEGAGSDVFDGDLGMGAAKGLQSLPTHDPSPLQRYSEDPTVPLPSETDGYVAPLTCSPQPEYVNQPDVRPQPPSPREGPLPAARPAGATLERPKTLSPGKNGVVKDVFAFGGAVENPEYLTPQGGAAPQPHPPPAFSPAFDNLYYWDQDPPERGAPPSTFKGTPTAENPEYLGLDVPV
measurement.protocol: Radioisotope assay for HER2
experimental.parameters: read-out: HER2/ErB2 IC50 grading
pIC50: −log10 of the molar value.
assay.endpoint: pIC50

COc1cc2ncnc(NCc3ccccc3)c2cc1OCCCCCCC(=O)NO = 6.00 to 7.00
C#Cc1cc(Nc2ncnc3cc(OCCOC)c(OCCCCCCC(=O)NO)cc23)ccc1F = 6.00 to 7.00
C#Cc1cccc(Nc2ncnc3cc(OCCCCCCC(=O)NO)c(OCCOC)cc23)c1 = 6.00 to 7.00
COc1cc2ncnc(Nc3ccc(OCc4cccc(F)c4)c(Cl)c3)c2cc1OCCCCCCC(=O)NO = > 7.00

query: Indicate the recorded pIC50 value for this compound: "COc1cc2ncnc(Nc3ccc(F)c(Cl)c3)c2cc1SCCCCC(=O)NO"
result: > 7.00

query: Indicate the recorded pIC50 value for this compound: "COCCOc1cc2c(Nc3ccc(F)c(Cl)c3)ncnc2cc1OCCCCCCC(=O)NO"
result: 6.00 to 7.00

query: Indicate the recorded pIC50 value for this compound: "COc1cc2ncnc(Nc3ccc(F)c(Cl)c3)c2cc1OCCCCCCC(=O)NO"
result: > 7.00

query: Indicate the recorded pIC50 value for this compound: "C#Cc1cc(Nc2ncnc3cc(OC)c(OCCCCCCC(=O)NO)cc23)ccc1O"
result: > 7.00

query: Indicate the recorded pIC50 value for this compound: "C#Cc1cccc(Nc2ncnc3cc(OC)c(OCC(=O)NO)cc23)c1"
result: > 7.00

query: Indicate the recorded pIC50 value for this compound: "C#Cc1cccc(Nc2ncnc3cc(OC)c(NC(=O)CCCCCCC(=O)NO)cc23)c1"
result: 6.00 to 7.00

query: Indicate the recorded pIC50 value for this compound: "O=C(CCCCCCOc1ccc2ncnc(Nc3ccc(OCc4cccc(F)c4)c(Cl)c3)c2c1)NO"
result: > 7.00

query: Indicate the recorded pIC50 value for this compound: "COc1cc2ncnc(Nc3ccc(F)c(Cl)c3)c2cc1NC(=O)CCCCCCC(=O)NO"
result: 6.00 to 7.00

query: Indicate the recorded pIC50 value for this compound: "COc1cc2ncnc(NCc3ccc(F)c(Cl)c3)c2cc1OCCCCCCC(=O)NO"
result: 5.00 to 6.00

query: Indicate the recorded pIC50 value for this compound: "COCCOc1cc2ncnc(Nc3ccc(F)c(Cl)c3)c2cc1NC(=O)CCCCCCC(=O)NO"
result: > 7.00

query: Indicate the recorded pIC50 value for this compound: "C#Cc1cccc(Nc2ncnc3cc(OC)c(OCCCCCC(=O)NO)cc23)c1"
result: 6.00 to 7.00

query: Indicate the recorded pIC50 value for this compound: "C#Cc1cccc(Nc2ncnc3cc(OCCCCCCC(=O)NO)c(OC)cc23)c1"
result: 6.00 to 7.00

query: Indicate the recorded pIC50 value for this compound: "C#Cc1cc(Nc2ncnc3cc(OC)c(OCCCCCCC(=O)NO)cc23)ccc1F"
result: 6.00 to 7.00

All values here come from patent US8604044B2.
